Tested on: HMLE_sh_eGFP viability, CellTiter-Glo luminescence, 72 h
protocol-text: cytotoxicity in HMLE control line with eGFP shRNA, dose response, counter-screen for HMLE_sh_ECad selective toxicity project, cell-based, HMLE_sh_eGFP, luminescence (AID 463074);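 note: counterscreen control line to flag general toxicity for the HMLE_sh_ECad screen; potency for loss of viability as luminescence drops below DMSO wells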;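 active = AC50 no more than tenfold above the top dose tested, or full inhibition at every dose with a flat fit (cut at about 19 µM in these data); inconclusive = flat curve fit with inhibition between 30% and 70%, or poor fit; inactive = AC50 more than tenfold above the top dose tested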
Answer with one of the outcomes given here: active, inactive

[
  {
    "compound": "c1ccc(NNC2=NCCCCC2)cc1",
    "category": "active"
  },
  {
    "compound": "CC[C@H](CO)Nc1nc(Nc2cccc(Cl)c2)c2ncn(C(C)C)c2n1",
    "category": "active"
  }
]

Q) Could you check what this test reported for Cc1ccc(C(=O)N2N=C(c3ccc(Br)cc3)CC2c2ccccc2O)cc1 (stereo unspecified) ?
A) active

Q) Could you check what this test reported for CCCc1ccc(-c2cc(NC(=O)CSc3nnc(N)s3)n(-c3ccccc3)n2)cc1 ?
A) active

Q) Could you check what this test reported for CCOC(=O)c1sc(NC(=O)Nc2ccccc2Cl)cc1C ?
A) active

Q) Could you check what this test reported for CCCCCc1cc(=O)oc2c(C(CCN3CCCCC3)c3ccc4c(c3)OCO4)c(OC)cc(OC)c12 (stereo unspecified) ?
A) active

Q) Could you check what this test reported for CC(NCc1ccc(OCc2ccc(Cl)cc2)cc1)C(O)c1ccccc1 (stereo unspecified) ?
A) active

Q) Could you check what this test reported for COc1ccc(NC(=O)c2cc(-c3ccccc3OC)on2)cc1 ?
A) active

Q) Could you check what this test reported for CC(C)N1CCN(Cc2ccc(OCc3ccccc3)cc2)CC1CCO (stereo unspecified) ?
A) active

Q) Could you check what this test reported for COc1ccc(OC)c(NC(=O)c2nnn(Cc3ccccc3C)c2N)c1 ?
A) active

Q) Could you check what this test reported for CCOc1cc(CNc2ccc(Br)cc2)cc(Br)c1OCC(=O)NC(C)(C)C ?
A) active

Q) Could you check what this test reported for O=C(Cn1ncc(Cl)c(Cl)c1=O)NC(=O)NC1CCCCC1 ?
A) active

====

Consider the following compounds and their measured AC50 readings.
Test system: HMLE_sh_eGFP viability, CellTiter-Glo luminescence, 72 h
protocol-text: cytotoxicity in HMLE control line with eGFP shRNA, dose response, counter-screen for HMLE_sh_ECad selective toxicity project, cell-based, HMLE_sh_eGFP, luminescence (AID 463074);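 note: counterscreen control line to flag general toxicity for the HMLE_sh_ECad screen; potency for loss of viability as luminescence drops below DMSO wells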

[
  {
    "chem-smiles": "O=c1c2cc(NC(=S)NCCCN3CCC(Cc4ccccc4)CC3)ccc2nc2n1CCCCC2",
    "data-value": "6.21 µM"
  },
  {
    "chem-smiles": "COc1cc(/C=C(\\C#N)c2ccccn2)ccc1OCC(=O)Nc1ccc(Br)cc1",
    "data-value": "2.7 µM"
  },
  {
    "chem-smiles": "Clc1ccc2c(N/N=C/c3cccc(Br)c3)ccnc2c1",
    "data-value": "4.06 µM"
  }
]

Switching to the query record.
Q) Lookup: AC50 / HMLE_sh_eGFP viability, CellTiter-Glo luminescence, 72 h / COc1ccc(/C=C/C(=O)Nc2ccc(C34CC5CC(CC(O)(C5)C3)C4)cc2)cc1OC
A) 0.631 µM

====

Tested on: HMLE_sh_eGFP viability, CellTiter-Glo luminescence, 72 h
protocol-text: cytotoxicity in HMLE control line with eGFP shRNA, dose response, counter-screen for HMLE_sh_ECad selective toxicity project, cell-based, HMLE_sh_eGFP, luminescence (AID 463074);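 note: counterscreen control line to flag general toxicity for the HMLE_sh_ECad screen; potency for loss of viability as luminescence drops below DMSO wells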
Consider the following molecules and their measured AC50 readings.

Example molecules with recorded AC50:
[
  {
    "chem-smiles": "Cc1[nH]nc2nc(SCC(=O)NC3CCCCC3)n(-c3ccc(Br)cc3)c(=N)c12",
    "AC50": "14.4 µM"
  },
  {
    "chem-smiles": "Cc1cc(C(C)(C)C)c(OC(=O)[C@@H]2OC(c3ccccc3)=C[C@H]2c2ccccc2)c(C(C)(C)C)c1",
    "AC50": "7.77 µM"
  },
  {
    "chem-smiles": "CCOC(=O)/C(=C\\c1ccc([N+](=O)[O-])cc1)C(=O)c1cc(C(C)=O)c(Nc2ccccc2)s1",
    "AC50": "1.07 µM"
  }
]

Q) I'd like to know its AC50. The molecule in question is COc1cc(/C=N/NC(=O)c2cc(C34CC5CC(CC(C5)C3)C4)[nH]n2)ccc1O
A) 0.24 µM
